experiment: In vivo rat pharmacokinetics (intravenous and oral); settings: plasma, read-out: T ½ (converted)
measure: log10 of half-life (log10 of the value in h)
// units: h (pre-log); metric: half-life; scale: log10

The examples below pair each entry with its known result.
[[record]]
cpd_smiles = "CC(C)c1cc(-c2ccc(C(F)(F)F)c(F)c2)nn2cc(C(=O)N3CCN(C(=O)C(C)(C)O)CC3(C)C)nc12"
test_result = 0.77

[[record]]
cpd_smiles = "CC1(C)C(=O)NCCN1C(=O)c1cn2nc(-c3ccc(F)cc3)cc(C3CCOCC3)c2n1"
test_result = 0.83

[[record]]
cpd_smiles = "CC(C)(C)c1cc(-c2ccc(Cl)cc2)nn2cc(C(=O)N3CCN(C(=O)[C@H]4C[C@@](C)(O)C4)CC3(C)C)nc12"
test_result = 0.98

[[record]]
cpd_smiles = "CC(C)(C)c1cc(C2CCC(F)(F)CC2)nn2cc(C(=O)N3CCN(C(=O)[C@H]4C[C@@](C)(O)C4)CC3(C)C)nc12"
test_result = 0.56

[[record]]
cpd_smiles = "Cc1cc(-c2ccc(F)cc2)nn2cc(C(=O)N3CCN(C(=O)[C@H](O)CC(C)(C)C)[C@@H](C)C3)nc12"
test_result = 0.08


Query: log10 of half-life; subject: CC(C)(C)c1cc(-c2ccc(F)cc2)nn2cc(C(=O)N3CCN(C(=O)[C@H]4CC[C@@](C)(C(=O)O)CC4)CC3(C)C)nc12
-0.38

Query: log10 of half-life; subject: CC(C)(C)c1cc(-c2ccc(F)cc2)nn2cc(C(=O)N3CCNC(=O)C3(C)C)nc12
1.76

----------
experiment: In vivo rat pharmacokinetics (intravenous and oral); conditions: plasma, read-out: T ½ (converted)
measure: half-life

[[record]]
cpd_smiles = "Cc1cc(C(=O)N2CCN(C(=O)c3cn4nc(-c5ccc(F)cc5)cc(C(C)C)c4n3)C(C)(C)C2)[nH]n1"
test_result = "5.36 h"


Query: half-life; subject: CC(C)(C)c1cc(-c2ccc(C(F)(F)F)cc2)nn2cc(C(=O)N3CCNC(=O)C3(C)C)nc12
77.9 h

Query: half-life; subject: CC(C)(C)c1cc(-c2ccc(F)cc2)nn2cc(C(=O)N3CCN(C(=O)c4c[nH]cn4)CC3(C)C)nc12
2.5 h

----------
Biological target: PAR2 (HT-29 cells, trypsin activation) (Homo sapiens, UniProt P55085)
Construct: host or cells: HT-29 cells
Sequence (P55085 26-397): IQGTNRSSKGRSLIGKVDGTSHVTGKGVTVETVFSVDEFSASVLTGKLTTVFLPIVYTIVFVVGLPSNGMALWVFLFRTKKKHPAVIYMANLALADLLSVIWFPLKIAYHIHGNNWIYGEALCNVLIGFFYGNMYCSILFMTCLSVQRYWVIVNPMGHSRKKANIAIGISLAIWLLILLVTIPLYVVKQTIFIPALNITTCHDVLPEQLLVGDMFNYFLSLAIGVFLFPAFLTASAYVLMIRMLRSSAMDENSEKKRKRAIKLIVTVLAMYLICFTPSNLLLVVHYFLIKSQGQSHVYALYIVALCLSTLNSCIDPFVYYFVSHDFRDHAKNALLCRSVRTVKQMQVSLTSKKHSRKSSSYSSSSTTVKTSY
Assay: Ca FLIPR TETRA assay, ANTAGONIST mode, stimulation with 3.1 U/mL trypsin
Type: cell-based
Settings: HT-29 cells, antagonist mode, stimulation with 3.1 U/mL trypsin
Recorded pIC50 by entry
Conceptually, pIC50 converts a concentration in mol/L into minus its log10.

The examples below pair each entry with its known result.
[[record]]
molecule = "CC(C)(C)c1cc(C2CCC(F)(F)CC2)nn2cc(C(=O)N3CCN(C(=O)[C@H]4C[C@@H](C(=O)O)C4)CC3(C)C)nc12"
test_result = 7.04

[[record]]
molecule = "CC(C)(C)c1cc(-c2ccc(F)cc2)nn2cc(C(=O)N3CCN(CC(=O)O)C(=O)C3(C)C)nc12"
test_result = 7.16

[[record]]
molecule = "Cc1n[nH]c(C(=O)N2CCN(C(=O)c3cn4nc(-c5ccc(C(F)(F)F)cc5)cc(C(C)(C)C)c4n3)C(C)(C)C2)n1"
test_result = 8.82


PAR2 (HT-29 cells, trypsin activation) (Homo sapiens, UniProt P55085) / pIC50 / COC(=O)CCC(=O)N1CCN(C(=O)c2cn3nc(-c4ccc(F)cc4)cc(C(C)(C)C)c3n2)C(C)(C)C1 : value?
8.43

PAR2 (HT-29 cells, trypsin activation) (Homo sapiens, UniProt P55085) / pIC50 / CC(C)(C)c1cc(-c2ccc(F)cc2)nn2cc(C(=O)N3CCN(c4nn[nH]n4)C(=O)C3(C)C)nc12 : value?
8.96

PAR2 (HT-29 cells, trypsin activation) (Homo sapiens, UniProt P55085) / pIC50 / Cc1ccc(-c2cc(C(C)(C)C)c3nc(C(=O)N4CCN(c5cn[nH]c5)C(=O)C4(C)C)cn3n2)cc1 : value?
8.77

PAR2 (HT-29 cells, trypsin activation) (Homo sapiens, UniProt P55085) / pIC50 / CC(C)c1cc(-c2ccc(C(F)(F)F)cc2)nn2cc(C(=O)N3CCNC(=O)C3(C)C)nc12 : value?
8.70

PAR2 (HT-29 cells, trypsin activation) (Homo sapiens, UniProt P55085) / pIC50 / Cc1cc(C(=O)N2CCN(C(=O)c3cn4nc(-c5ccc(F)c(Cl)c5)cc(C(C)(C)C)c4n3)C(C)(C)C2)[nH]n1 : value?
8.72

# credit: patent US20190119282A1
